Source of measurements: paper PMC10487708

Collected ORAC Dark Condition (TE, μM) values appear next to each entry.
- EXPERIMENTAL_PROTOCOL: ORAC (oxygen radical absorbance capacity) assay
- Format: biochemical
- ASSAY_CONTEXT: dark, 1 μM compound, Trolox equivalent
Only the number, expressed in µM, is required.

Consider the following illustrative entries.
• C=Cc1c(C)c2cc3nc(c(CC(=O)O)c4[nH]c(cc5nc(cc1[nH]2)C(C)=C5CC)c(C)c4C(=O)O)[C@@H](CCC(=O)O)[C@@H]3C [Ce6, Chlorin e6] = 18.5
• C=Cc1c(C)c2cc3nc(c(CC(=O)OC)c4[nH]c(cc5nc(cc1[nH]2)C(C)=C5CC)c(C)c4C(=O)NCCCOCCOCCOCCCNC(=O)CCCC(=O)Oc1ccc(/C=C/C(=O)CC(=O)/C=C/c2ccc(O)c(OC)c2)cc1OC)C(CCC(=O)OC)C3C (stereo not shown) [Ce6-diPEG-curcumin] = 20.85

In the following, a different compound is considered.
Fill in the blank: the reported ORAC Dark Condition (TE, μM) of C=Cc1c(C)c2cc3nc(c(CC(=O)OC)c4[nH]c(cc5nc(cc1[nH]2)C(C)=C5CC)c(C)c4C(=O)NCCCNC(=O)CCCC(=O)Oc1ccc(/C=C/C(=O)CC(=O)/C=C/c2ccc(O)c(OC)c2)cc1OC)C(CCC(=O)OC)C3C (stereo not shown) [Ce6-propane-curcumin] is ____. 20.11

====

Collected IC50 values appear next to each entry.
- EXPERIMENTAL_PROTOCOL: MTT cytotoxicity of Ce6-curcumin derivative PDT in BALB/c 3T3 cells
- Format: cell-based, mouse
- ASSAY_CONTEXT: mouse, BALB/c 3T3 cells; 3 h treatment, 660 nm 20 J/cm^2, MTT after 24 h, tested 200 to 6400 nM; read-out: IC50 cytotoxicity against BALB/c 3T3 cells
- Experimental: MTT assay was used to evaluate viability after 24 h. IC50 values were calculated using GraphPad Prism 5 software. Hs68 and BALB/c 3T3 cell viability was measured using a 3-[4,5-dimethylthylthiazol-2-yl]-2,5 diphenyl tetrazolium bromide (MTT) assay. […] After the formation of formazan, 100 µL of DMSO was added, and the absorbance was measured at 570 nm using a microtiter plate reader (Thermo-scientific, Skanlt software 5.0, Waltham, MA, USA)
The reply should consist of the numeric value with the unit placed after it.

* C=Cc1c(C)c2cc3nc(c(CC(=O)OC)c4[nH]c(cc5nc(cc1[nH]2)C(C)=C5CC)c(C)c4C(=O)NCCCOCCOCCOCCCNC(=O)CCCC(=O)Oc1ccc(/C=C/C(=O)CC(=O)/C=C/c2ccc(O)c(OC)c2)cc1OC)C(CCC(=O)OC)C3C (centres unmarked) | 830 nM

In the following, a different compound is considered.
Fill in the blank: the reported IC50 of C=Cc1c(C)c2cc3nc(c(CC(=O)OC)c4[nH]c(cc5nc(cc1[nH]2)C(C)=C5CC)c(C)c4C(=O)NCCCNC(=O)CCCC(=O)Oc1ccc(/C=C/C(=O)CC(=O)/C=C/c2ccc(O)c(OC)c2)cc1OC)C(CCC(=O)OC)C3C (centres unmarked) is ____. 2040 nM

====

- Tested on: Hs68 cells
- EXPERIMENTAL_PROTOCOL: MTT cell viability of Hs68 cells with or without LED light
- Assay type: cell-based, human
- ASSAY_CONTEXT: Homo sapiens, light or radiation study; Hs68 cells, without LED irradiation, MTT; read-out: Dark Toxicity (IC50)
Collected IC50 values appear next to each entry.

Consider the following illustrative entries.
- C=Cc1c(C)c2cc3nc(c(CC(=O)O)c4[nH]c(cc5nc(cc1[nH]2)C(C)=C5CC)c(C)c4C(=O)O)[C@@H](CCC(=O)O)[C@@H]3C: ≥ 1000 nM
- C=Cc1c(C)c2cc3nc(c(CC(=O)OC)c4[nH]c(cc5nc(cc1[nH]2)C(C)=C5CC)c(C)c4C(=O)NCCCOCCOCCOCCCNC(=O)CCCC(=O)Oc1ccc(/C=C/C(=O)CC(=O)/C=C/c2ccc(O)c(OC)c2)cc1OC)C(CCC(=O)OC)C3C (stereo not drawn): ≥ 1000 nM

In the following, a different compound is considered.
Fill in the blank: the reported IC50 of C=Cc1c(C)c2cc3nc(c(CC(=O)OC)c4[nH]c(cc5nc(cc1[nH]2)C(C)=C5CC)c(C)c4C(=O)NCCCNC(=O)CCCC(=O)Oc1ccc(/C=C/C(=O)CC(=O)/C=C/c2ccc(O)c(OC)c2)cc1OC)C(CCC(=O)OC)C3C (stereo not drawn) is ____. ≥ 1000 nM
